# experiment notes: Half life in C57BL/6 mouse at 50 mg/kg, po by LC-MS/MS analysis
# Type: ADME, organism-based
# measurement parameters: in vivo
assay endpoint: half-life (h)
Response body: numeric value in h, unit text excluded.

Ask | Quote half-life reported for `Cc1cc(NC(=O)c2cccc(S(=O)(=O)N[C@H]3CCOC3)c2)ccc1F` please.
Reply | 2.4

====

# experiment notes: Kinetic solubility of the compound at pH 7.4 after 4 hrs by UPLC-UV analysis
# Assay type: physicochemical
# measurement parameters: buffer, read-out: Kinetic_solubility
Decision: solubility kinetic at 4 h >= 50 µM yields class 1, all other cases yield class 0.

The examples below pair each entry with its known result.
{"smiles str": "CN(c1cccc(C(=O)Nc2ccc(F)cc2)c1)S(=O)(=O)C1CCCC1", "label": "class 1"}
{"smiles str": "CC[C@@H](C)NS(=O)(=O)c1cccc(C(=O)Nc2ccc(F)cc2)c1", "label": "class 1"}
{"smiles str": "Cc1cc(NC(=O)c2cccc(S(=O)(=O)NC(C)C)c2)ccc1F", "label": "class 0"}
{"smiles str": "N#Cc1cc(NC(=O)c2cccc(S(=O)(=O)N[C@H]3CCOC3)c2)ccc1F", "label": "class 1"}

Ask | Please tell me: is the compound `Cc1ccc(NC(=O)c2cccc(S(=O)(=O)NC3CCCC3)c2)cc1F` at or over 50 µM in terms of solubility kinetic at 4 h?
Reply | class 0

Ask | Please tell me: is the compound `O=C(Nc1ccc(F)cc1)c1cccc(S(=O)(=O)N2CCCC2)c1` at or over 50 µM in terms of solubility kinetic at 4 h?
Reply | class 0

Ask | Please tell me: is the compound `Cc1cc(NC(=O)c2cccc(S(=O)(=O)NC3(C)COC3)c2)c(C)cc1F` at or over 50 µM in terms of solubility kinetic at 4 h?
Reply | class 1

Ask | Please tell me: is the compound `O=C(Nc1ccc(F)cc1)c1cccc(C(=O)NC2CCCCC2)c1` at or over 50 µM in terms of solubility kinetic at 4 h?
Reply | class 0

Ask | Please tell me: is the compound `O=C(Nc1cccc2ccccc12)c1cc(S(=O)(=O)NC2CCCCC2)ccc1F` at or over 50 µM in terms of solubility kinetic at 4 h?
Reply | class 0

Ask | Please tell me: is the compound `O=C(Nc1ccc(F)cc1)c1cccc(S(=O)(=O)NC2CCC2)c1` at or over 50 µM in terms of solubility kinetic at 4 h?
Reply | class 1

====

# subject of test: Core antigen (Hepatitis B virus)
# experiment notes: Induction of HBV Maleimidyl BoDIPY-FL-labeled capsid Cp*150 mutant aggregation incubated for 30 mins measured every 10 secs for 30 mins by fluorescence quenching assay
The source made the active and inactive calls. No cut-off for these calls is given here.

{"smiles str": "O=C(Nc1ccc2ccccc2c1)c1cc(S(=O)(=O)NC2CCCCC2)ccc1F", "subject of test": "Core antigen (Hepatitis B virus)", "Activity": "inactive"}
{"smiles str": "CN(C(=O)c1cccc(S(=O)(=O)NC2CCCC2)c1)c1ccc(F)cc1", "subject of test": "Core antigen (Hepatitis B virus)", "Activity": "inactive"}

====

# experiment notes: Kinetic solubility of the compound at pH 7.4 after 4 hrs by UPLC-UV analysis
# Assay type: physicochemical
# measurement parameters: buffer, read-out: Kinetic_solubility
Decision: solubility kinetic at 4 h >= 30 µM yields 1, all other cases yield 0.

The examples below pair each entry with its known result.
{"smiles str": "O=C(Nc1ccc(F)cc1)c1ccc(Cl)c(S(=O)(=O)N2CCCCCC2)c1", "label": 0}
{"smiles str": "CC(C)(C)NS(=O)(=O)c1cccc(C(=O)Nc2ccc(F)cc2)c1", "label": 0}
{"smiles str": "CC(=O)N1CCC(NS(=O)(=O)c2cccc(C(=O)Nc3ccc(F)cc3)c2)CC1", "label": 1}
{"smiles str": "CC(=O)N1CCN(S(=O)(=O)c2cccc(C(=O)Nc3ccc(F)cc3)c2)CC1", "label": 1}
{"smiles str": "CN(C(=O)c1cccc(S(=O)(=O)NC2CCCC2)c1)c1ccc(F)cc1", "label": 1}
{"smiles str": "O=C(Nc1cccnc1)c1cc(S(=O)(=O)NC2CCCCC2)ccc1F", "label": 1}
{"smiles str": "CN1CCC(NS(=O)(=O)c2cccc(C(=O)Nc3ccc(F)cc3)c2)CC1", "label": 1}
{"smiles str": "O=C(Nc1ccc(F)c(F)c1)c1cccc(S(=O)(=O)NC2CCCC2)c1", "label": 1}
{"smiles str": "O=C(NCc1ccccc1)c1cc(S(=O)(=O)NC2CCCCC2)ccc1F", "label": 0}

# input for lookup
Ask | Please tell me: is the compound `CN1CCN(S(=O)(=O)c2cccc(C(=O)Nc3ccc(F)cc3)c2)CC1` at or over 30 µM in terms of solubility kinetic at 4 h?
Reply | 1

====

# experiment notes: Kinetic solubility of the compound at pH 7.4 after 4 hrs by UPLC-UV analysis
# Assay type: physicochemical
# measurement parameters: buffer, read-out: Kinetic_solubility
Decision: solubility kinetic at 4 h >= 40 µM yields 1, all other cases yield 0.

{"smiles str": "CC1(NS(=O)(=O)c2cccc(C(=O)Nc3ccc(F)cc3)c2)COC1", "label": 1}
{"smiles str": "Cc1cc(NC(=O)c2cccc(S(=O)(=O)N[C@H]3CCOC3)c2)ccc1F", "label": 1}
{"smiles str": "O=C(Nc1ccc(F)cc1)c1cccc(NS(=O)(=O)C2CCCC2)c1", "label": 1}
{"smiles str": "O=C(Nc1ccc(F)cc1)c1cc(S(=O)(=O)NC2CCCCC2)ccc1F", "label": 1}
{"smiles str": "O=C(Nc1ccc(F)cc1)c1cccc(S(=O)(=O)NC2CCCCC2)c1", "label": 1}
{"smiles str": "Cc1cc(NC(=O)c2cccc(S(=O)(=O)N[C@H]3CCOC3)c2)c(F)cc1F", "label": 1}

Ask | Please tell me: is the molecule `Cc1cc(F)cc(NC(=O)c2cccc(S(=O)(=O)NC3CCCC3)c2)c1` at or over 40 µM in terms of solubility kinetic at 4 h?
Reply | 0

Ask | Please tell me: is the molecule `O=C(Nc1ccc(F)cc1)c1cccc(S(=O)(=O)N2CCOCC2)c1` at or over 40 µM in terms of solubility kinetic at 4 h?
Reply | 1

Ask | Please tell me: is the molecule `O=C(Nc1cccc(S(=O)(=O)NC2CCCCC2)c1)c1ccccc1` at or over 40 µM in terms of solubility kinetic at 4 h?
Reply | 0

Ask | Please tell me: is the molecule `O=C(Nc1nccs1)c1cc(S(=O)(=O)NC2CCCCC2)ccc1F` at or over 40 µM in terms of solubility kinetic at 4 h?
Reply | 1

Ask | Please tell me: is the molecule `O=C(Nc1ccccc1)c1cc(S(=O)(=O)NC2CCCCC2)ccc1F` at or over 40 µM in terms of solubility kinetic at 4 h?
Reply | 0

Ask | Please tell me: is the molecule `CCC(CC)NS(=O)(=O)c1cccc(C(=O)Nc2ccc(F)cc2)c1` at or over 40 µM in terms of solubility kinetic at 4 h?
Reply | 0

Ask | Please tell me: is the molecule `COc1cc(NC(=O)c2cccc(S(=O)(=O)N[C@H]3CCOC3)c2)ccc1F` at or over 40 µM in terms of solubility kinetic at 4 h?
Reply | 1

Ask | Please tell me: is the molecule `O=C(Nc1ccc2ccccc2c1)c1cc(S(=O)(=O)NC2CCCCC2)ccc1F` at or over 40 µM in terms of solubility kinetic at 4 h?
Reply | 0

====

Each entry below lists one item and its recorded CC50 value.
# experiment notes: Cytotoxicity against human HepG2 cells after 4 to 6 days by resazurin assay
# Assay type: cell-based
# measurement parameters: HepG2 cells

Please review the entries below; each comes with its answer.
{"smiles str": "Cc1cc(NC(=O)c2cccc(S(=O)(=O)NC(C)C)c2)ccc1F", "CC50": "47.5 µM"}
{"smiles str": "O=C(Nc1ccc(F)c(F)c1)c1cccc(S(=O)(=O)N[C@H]2CCOC2)c1", "CC50": "> 50 µM"}
{"smiles str": "Cc1c(NC(=O)c2cccc(S(=O)(=O)N[C@H]3CCOC3)c2)ccc(F)c1F", "CC50": "> 25 µM"}
{"smiles str": "N#Cc1cc(NC(=O)c2cccc(S(=O)(=O)N[C@H]3CCOC3)c2)ccc1F", "CC50": "> 50 µM"}
{"smiles str": "CCc1cc(NC(=O)c2cccc(S(=O)(=O)NC(C)C)c2)ccc1F", "CC50": "28.5 µM"}

Ask | Quote CC50 reported for `Cc1c(F)ccc(NC(=O)c2cccc(S(=O)(=O)N[C@H]3CCOC3)c2)c1F` please.
Reply | > 25 µM

Ask | Quote CC50 reported for `Cc1cc(NC(=O)c2cccc(S(=O)(=O)NC3(C)COC3)c2)ccc1F` please.
Reply | 47.1 µM

Ask | Quote CC50 reported for `CC(C)NS(=O)(=O)c1cccc(C(=O)Nc2ccc(F)c(C3CC3)c2)c1` please.
Reply | 35.2 µM

Ask | Quote CC50 reported for `Cc1cc(NC(=O)c2cccc(S(=O)(=O)N[C@H]3CCOC3)c2)c(F)cc1F` please.
Reply | > 25 µM

Ask | Quote CC50 reported for `Cc1cc(NC(=O)c2cccc(S(=O)(=O)NC3(C)COC3)c2)c(C)cc1F` please.
Reply | > 25 µM
